- study target: C-term biotin J-peptide (Homo sapiens, UniProt P00533, DELINS30-297G)
- assay notes: Antibody specificity by ELISA
- run parameters: ELISA binding, avidin pre-coated plates
pEC50: −log10 of the molar value.
value kind: pEC50

| molecule | result |
| --- | --- |
| H1H1912N: human IgG1 Fc anti-EGFRvIII antibody with variable domains 1912; HCVR/LCVR SEQ ID NOs 66/74 (antibody, V domains shown, human IgG1 Fc) VH: EVQLVESGGGLVQPGRSLRLSCAASGFTFDDYAMHWVRQVPGKGLEWVSGISWNSGSIGYADSVKGRFTISRDNAKNSLYLQMNSLRAEDTALYYCAKDIHDYGKDYYYYYGMDVWGQGTTVTVSS VL: EIALTQSPGTLSLSPGERATLSCRASQSVSSTYLAWYQQKPGQAPRLLIYGASSRATGIPDRFSGSGSGTDFTLTISRLEPEDFAVYYCQQYDSSPITFGQGTRLEIK | < 8.00 |
